Each entry below carries its measured pKi, system: UniProt:O43570.
Sequence (O43570 whole entry): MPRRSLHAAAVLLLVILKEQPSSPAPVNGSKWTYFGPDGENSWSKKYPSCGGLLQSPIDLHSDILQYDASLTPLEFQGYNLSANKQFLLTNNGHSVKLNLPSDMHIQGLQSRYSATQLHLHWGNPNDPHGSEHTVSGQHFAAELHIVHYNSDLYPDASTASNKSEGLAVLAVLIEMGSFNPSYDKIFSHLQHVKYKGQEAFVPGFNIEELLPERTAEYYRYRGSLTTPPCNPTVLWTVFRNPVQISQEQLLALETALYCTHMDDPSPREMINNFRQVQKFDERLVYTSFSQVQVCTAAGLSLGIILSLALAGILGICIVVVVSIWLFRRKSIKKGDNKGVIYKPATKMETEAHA
# pKi is unitless: minus log10 of the molar concentration; print number only

>  <Structure smiles>
NS(=O)(=O)c1ccc(OCCCCCO[N+](=O)[O-])cc1

>  <Endpoint>
pKi

>  <Endpoint result>
6.94

$$$$
>  <Structure smiles>
COc1cc(/C=C/C(=O)OCCCCO[N+](=O)[O-])ccc1OC(=O)c1ccc(S(N)(=O)=O)cc1

>  <Endpoint>
pKi

>  <Endpoint result>
7.72

$$$$
>  <Structure smiles>
COc1cc(/C=C/C(=O)OCCCCO[N+](=O)[O-])ccc1OC(=O)c1ccc(S(=O)(=O)Nc2nnc(S(N)(=O)=O)s2)cc1

>  <Endpoint>
pKi

>  <Endpoint result>
7.37

$$$$
>  <Structure smiles>
NS(=O)(=O)c1nnc(NS(=O)(=O)c2cccc(C(=O)OCCCCO[N+](=O)[O-])c2)s1

>  <Endpoint>
pKi

>  <Endpoint result>
7.51

$$$$

Now consider a different compound.
Query block: Report the value of pKi obtained on UniProt:O43570 for NS(=O)(=O)c1ccc(OCCCCO[N+](=O)[O-])cc1 .
Result block: 7.54

// data source = ChEMBL document CHEMBL1777754
